Form field: HIV-HXB2D Q40H mutant (fold change in EC50) (one value per entry).
- System: HIV mutant virus strain HXB2D with mutation Q40H in the gp41 gene
- method description: Standard AVE, HXB2D site directed mutant Q40H
- Format: cell-based, HIV-1
- condition description: fold change vs wild type strain HXB2D
Non-standard residues stand in square brackets, D forms with d. *: point of attachment. cholesteryl‑oxycarbonylmethyl = CC(C)CCC[C@@H](C)[C@H]1CC[C@H]2[C@@H]3CC=C4C[C@@H](OC(=O)C*)CC[C@]4(C)[C@H]3CC[C@]12C; hCys = N[C@@H](CCS)C(=O)O; Hexanoyl = CCCCCC(=O)*
Please give the numeric answer without any surrounding text.

Which HIV-HXB2D Q40H mutant (fold change in EC50) value belongs to Ac-A[hCys]YAA[hCys]IEALIRKAQEQQEKNEAALR-NH2 (cysteine pairing not given here) [Peptide 79] ?
284

Which HIV-HXB2D Q40H mutant (fold change in EC50) value belongs to Ac-ACYAACIEALIRAAQEQQEKNEAALRGSGC(cholesteryl-oxycarbonylmethyl)-NH2 [87] (Ac-ACYAACIEALIRAAQEQQEKNEAALRGSGC(cholesteryl‑oxycarbonylmethyl)-NH2; cysteine pairing not given here) [Peptide 87] ?
5

Which HIV-HXB2D Q40H mutant (fold change in EC50) value belongs to Ac-ECYLRCIEALIRAAQEQQEKNEAALR-NH2 [Peptide 50] ?
33

Which HIV-HXB2D Q40H mutant (fold change in EC50) value belongs to Hexanoyl-ECYLACIEELIRKAQEQQEKNEAALR-NH2 (cysteine pairing not given here) [Peptide 42] ?
27

Which HIV-HXB2D Q40H mutant (fold change in EC50) value belongs to Ac-ACYAACIEALIRAAQEQQEKNEAALRGSGC(cholesteryl-oxycarbonylmethyl)-NH2 [81] (Ac-ACYAACIEALIRAAQEQQEKNEAALRGSGC(cholesteryl‑oxycarbonylmethyl)-NH2; cysteine pairing not given here) [Peptide 81] ?
24
